# tested system: N-formyl peptide receptor 2 (Homo sapiens, UniProt P25090)
# Sequence (P25090 whole entry): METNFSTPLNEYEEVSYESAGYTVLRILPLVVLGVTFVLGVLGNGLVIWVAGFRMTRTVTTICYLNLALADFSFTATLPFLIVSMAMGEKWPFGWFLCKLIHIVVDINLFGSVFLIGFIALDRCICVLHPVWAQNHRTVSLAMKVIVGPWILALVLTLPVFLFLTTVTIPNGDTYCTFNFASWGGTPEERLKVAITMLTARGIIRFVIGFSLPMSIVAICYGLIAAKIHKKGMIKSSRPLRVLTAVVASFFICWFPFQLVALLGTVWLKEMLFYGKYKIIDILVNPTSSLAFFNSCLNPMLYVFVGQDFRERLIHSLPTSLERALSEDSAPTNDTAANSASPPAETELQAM
# experimental protocol: Agonist activity at human FPR2 expressed in HL-60 cells assessed as inhibition of WKYMVM-induced calcium mobilization
# Assay type: functional, cell-based
measurement label: pEC50
Interpret pEC50 as the negative base-10 log of the concentration measured in mol/L.

## Task Consider the substance `H-AKKVFKRLEKLFSKIQNDK-OH` and give its recorded pEC50.
## Result 6.52

====

# tested system: N-formyl peptide receptor 2 (Homo sapiens, UniProt P25090)
# experimental protocol: Agonist activity at human FPR2
# Type: functional
Where a SMILES comes first, the peptide text is derived from it. The star is where a group is joined. For = O=C*
Listed compounds paired with reported EC50
Respond with the bare value in nM.

## Task Fetch value of EC50 on N-formyl peptide receptor 2 (Homo sapiens, UniProt P25090) for `CC/C=C\C[C@@H](O)/C=C/C=C\C[C@@H](O)/C=C/C=C/C=C\[C@@H](O)CCC(=O)O` .
## Result 1.2

## Task Enter EC50 (test system N-formyl peptide receptor 2 (Homo sapiens, UniProt P25090)) for CC[C@H](C)[C@H](NC(=O)[C@@H](NC(=O)[C@H](Cc1ccccc1)NC(=O)[C@H](CC(C)C)NC(=O)[C@H](CCSC)NC=O)[C@@H](C)CC)C(=O)O (For-MLFII-OH)
## Result 3.8
